test system: m-IMCD3 cells; test: Inhibition of PGE2-stimulated in vitro cyst formation in m-IMCD3 cells; format: cell-based, mouse; conditions: Mus musculus, mIMCD3, 144 h, 10 μM; mean cyst area, 100% for (DMSO + PGE2) and 0% for DMSO control; 6 days of culture; read-out: % Cyst area after incubation with 10 μM test compound
reported endpoint: activity at 10 µM (%)
I only need the number, in %, no unit after it.

CC(C)(C(=O)N1CCc2nc(N3C4CCC3CNC4)sc2C1)C1CCCC1 :: 16

The compound O=C(CC1CCCC1)N1CCc2nc(N3CCNCC3)sc2C1 , tested on m-IMCD3 cells, showed activity at 10 µM of 6

The compound CC(C)C(=O)N1CCc2nc(N3C4CCC3CNC4)sc2C1 , tested on m-IMCD3 cells, showed activity at 10 µM of 9

The compound CC1(CC(=O)N2CCn3nc(N4C5CCC4CNC5)cc3C2)CCCC1 , tested on m-IMCD3 cells, showed activity at 10 µM of -2

The compound O=S(=O)(CC1CCCC1)N1CCc2nc(N3C4CCC3CNC4)sc2C1 , tested on m-IMCD3 cells, showed activity at 10 µM of -16

The compound O=C(N1CCc2nc(N3C4CCC3CNC4)sc2C1)C1(Oc2ccccc2)CC1 , tested on m-IMCD3 cells, showed activity at 10 µM of 7

The compound O=C(Cc1ccc(F)cc1)N1CCc2nc(N3C4CCC3CNC4)sc2C1 , tested on m-IMCD3 cells, showed activity at 10 µM of 6

The compound O=C(N1CCc2nc(N3C4CCC3CNC4)sc2C1)N1CCC2(CCCC2)C1 , tested on m-IMCD3 cells, showed activity at 10 µM of -8

The compound O=C(COc1ccc(F)cc1F)N1CCc2nc(N3C4CCC3CNC4)sc2C1 , tested on m-IMCD3 cells, showed activity at 10 µM of 3

The compound O=C(C1CCCC1)N1CCc2nc(N3C4CCC3CNC4)sc2C1 , tested on m-IMCD3 cells, showed activity at 10 µM of -2

The compound O=C(CC1CCCC1)N1CCc2nc(N3CCN[C@@H](CO)C3)sc2C1 , tested on m-IMCD3 cells, showed activity at 10 µM of 1

The compound COC(C(=O)N1CCc2nc(N3C4CCC3CNC4)sc2C1)c1ccc(F)cc1 (stereo not shown) , tested on m-IMCD3 cells, showed activity at 10 µM of -9

The reported measurements were obtained from patent US20250388604A1.
